Target Or System: human Gal-3 (hGal-3) (Homo sapiens (Human), UniProt P17931)
Sequence (P17931 whole entry): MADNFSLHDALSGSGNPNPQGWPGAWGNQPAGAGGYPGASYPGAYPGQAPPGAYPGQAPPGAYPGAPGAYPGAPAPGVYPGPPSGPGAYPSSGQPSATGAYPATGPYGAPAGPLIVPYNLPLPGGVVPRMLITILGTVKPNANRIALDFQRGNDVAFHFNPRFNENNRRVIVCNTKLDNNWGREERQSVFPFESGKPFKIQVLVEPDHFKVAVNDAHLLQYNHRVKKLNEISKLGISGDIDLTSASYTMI
Observed Property: IC50 (nM)

// known answers, use as guide
CO[C@@H]1[C@@H](n2cc(-c3ccc(F)c(F)c3F)nn2)[C@@H](O)[C@@H](CO)O[C@@H]1CC1CC(C2CCN(C(=O)OC(C)(C)C)CC2)=NO1 (some centres unmarked) [Ex 1.143] :: 100
CO[C@@H]1[C@@H](n2cc(-c3cc(F)cc(F)c3)nn2)[C@@H](O)[C@@H](CO)O[C@@H]1Cc1cc(C2CCN(C(=O)OC(C)(C)C)CC2)on1 [Ex 1.122] :: 140
CO[C@@H]1[C@@H](n2cc(-c3cc(F)c(F)c(F)c3)nn2)[C@@H](O)[C@@H](CO)O[C@@H]1Cc1cc(C2CCN(C(=O)C(C)C)CC2)on1 [Example 3.33] :: 65
CO[C@@H]1[C@@H](n2cc(-c3ccc(C)c(F)c3F)nn2)[C@@H](O)[C@@H](CO)O[C@@H]1Cc1cc(C2(C)COC2)on1 [Ex 1.320] :: 75
CCOC(=O)N1CCC(c2cc(C[C@H]3O[C@H](CO)[C@H](O)[C@H](n4cc(-c5cc(F)cc(Cl)c5)nn4)[C@H]3OC)no2)CC1 [Ex 1.200] :: 120

1 = CO[C@@H]1[C@@H](n2cc(-c3cc(F)c(F)c(F)c3)nn2)[C@@H](O)[C@@H](CO)O[C@@H]1Cc1cc(C2CCN(S(=O)(=O)N(C)C)CC2)on1 [Example 3.58]
2 = CO[C@@H]1[C@@H](n2cc(-c3ccc(C)c(F)c3F)nn2)[C@@H](O)[C@@H](CO)O[C@@H]1Cc1cc(C2(C)CCCC2)on1 [Ex 1.274]
Data request: # min-compare on IC50 between 1 and 2 Choose, then provide that item's label.
Data returned: 1
(1: 61 nM, 2: 110 nM)
